B1: MLL5 (parent)
chain: TYLCERCQPRNLDKERAVLLQRRK

# Variants of: B1
# assay-text: protein stability index of a GFP-peptide fusion (GPS, HEK-293T) (PSI 1-6); higher = more stable;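 further: lentivirally expressed fusions sorted by FACS into six bins by GFP to DsRed ratio, PSI derived from sequencing read proportions per bin multiplied by bin number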
# cond: c terminus: a fixed tail appended
measured-parameter: protein stability index
Please state the value as a number alone, without comment.

variant_notation=R16K measured_number=2.1

Quick one: give measured protein stability index for R10S
2.44

Kindly indicate its recorded protein stability index. Item: R23N
2.36

Return protein stability index for the following variant: E5I
2.47

Give the reported protein stability index for this variant. R10Y
2.04

Fill in protein stability index for record R22V
1.98

For the variant L12Q , report protein stability index.
3.79

Annotate the variant A17G with its measured protein stability index.
1.78

Input R23K , output reported protein stability index.
2.91

Indicate the recorded protein stability index value for this variant: L19Q
2.54

Dear colleague, please send me the reported protein stability index for C7W when you can.
3.6

Supply reported protein stability index belonging to this variant: R22E
1.76
